- target-desc: Metabotropic glutamate receptor 4 (Homo sapiens)
- assay-details: mGlu4 positive allosteric modulator potency, dose response, selectivity assay for mGlu7/mGlu8 PAM project, CHO Gqi5 cells, Fluo-4 calcium (AID 743423)
- condition-details: Fluo-4 calcium fluorescence, at 30 µM (top of the series)
The source made the active and inactive calls. The rule behind the calls is not given here.
Give your call using only these classes: y = active, n = inactive

These recorded examples may help you get a feel for the data.
CCOc1ccc(-n2c(C)cc(C(=O)CSCc3cccc(C)c3)c2C)cc1 :: n
COC(=O)c1ccc(-n2c(C)cc(C(=O)COc3cccc(N(C)C)c3)c2C)cc1 :: n
CC(=O)Nc1ccc(SCC(=O)c2cc(C)n(-c3ccccc3F)c2C)cc1 :: y
COc1ccc(CSCC(=O)c2cc(C)n(-c3ccc(OC(F)F)cc3)c2C)cc1 :: n
Cc1ccc(CSCC(=O)c2cc(C)n(-c3ccc(OC(F)F)cc3)c2C)cc1 :: n

Input line: Assay outcome for `COC(=O)c1ccc(-n2c(C)cc(C(=O)CNc3ccc(C(=O)O)cc3)c2C)cc1` : what was it?
Output line: n
